Data origin, for the record: the supplement of paper PMC10646978

- System: RAW-Dual (murine macrophage reporter line)
- assay overview: NF-kB reporter (SEAP) activity fold change vs agonist alone; higher = enhanced NF-kB activity
- experimental context: modulator concentration 10 µM; agonist: LPS 0.1 ug/mL
assay endpoint: NF-kB reporter
// return a plain number; no unit text

compound	system under test	val
COC(=O)c1ccccc1NC(=O)CCc1ccc(Oc2cc([N+](=O)[O-])cc([N+](=O)[O-])c2)cc1	RAW-Dual (murine macrophage reporter line)	1.08
Cc1ccc(O)c(N=Nc2ccc(S(=O)(=O)O)cc2)c1	RAW-Dual (murine macrophage reporter line)	1.15
Cc1c(Cl)cccc1Nc1ccccc1C(=O)O	RAW-Dual (murine macrophage reporter line)	1.14
CCOC(=O)C1=C(C)NC(=O)N(C(C)=O)C1c1ccc(Br)cc1 (stereo unspecified)	RAW-Dual (murine macrophage reporter line)	0.898
COc1cc(CNCc2ccc3ccccc3c2)cc(OC)c1	RAW-Dual (murine macrophage reporter line)	0.986

Bench note: what NF-kB reporter did O=C(Nc1cc2c(cc1Cl)OCCO2)c1cc(Cl)ccc1O show?
0.902

Consider the compound O=C(NCCCn1ccc2cccnc21)c1nc2ccccc2s1 and give its measured NF-kB reporter.
1.04

Report NF-kB reporter for COc1c2c(nc3ccccc13)OC(C(C)(O)COC(C)=O)C2 (stereo unspecified) please.
1.02

Item under review: N[C@@H](Cc1cc(I)c(Oc2cc(I)c(O)c(I)c2)c(I)c1)C(=O)O . Reported NF-kB reporter?
0.804

Which measured NF-kB reporter value corresponds to CN(C)[C@@H]1C(O)=C(C(N)=O)C(=O)[C@@]2(O)C(O)=C3C(=O)c4c(O)ccc(Cl)c4[C@@H](O)[C@H]3C[C@@H]12.Cl ?
0.965

Sample CCOC(=O)C1=C(C)NC(C)=C(C(=O)OCC)C1c1ccc(F)cc1 — what was its NF-kB reporter?
0.729

Need NF-kB reporter, item c1ccc(CSc2nnc(-c3ccncc3)[nH]2)cc1
0.945

Look up NF-kB reporter for this compound: Cc1cc(OC2CN(C(=O)Cc3c[nH]c4ccccc34)C2)cc(=O)n1C1CC1
1.1

What measured NF-kB reporter goes with O=C1C(CCC(O)c2ccc(F)cc2)C(c2ccc(O)cc2)N1c1ccc(F)cc1 (stereo unspecified) ?
0.898

Consider the compound shown here: Cc1ccc(O)c([C@H](CCN(C(C)C)C(C)C)c2ccccc2)c1.O=C(O)[C@H](O)[C@@H](O)C(=O)O What is its recorded NF-kB reporter?
0.881

Name the recorded NF-kB reporter for O=C1C(CCS(=O)c2ccccc2)C(=O)N(c2ccccc2)N1c1ccccc1 (stereo unspecified) .
0.955

// returns reported NF-kB reporter for input COc1ccc2sc(C)[n+](CCCS(=O)(=O)[O-])c2c1
1.08

Looking for the measured NF-kB reporter of CC(C(=O)O)c1ccc2c(c1)[nH]c1ccc(Cl)cc12 (stereo unspecified) , can you help?
1.13

If you can, please state the reported NF-kB reporter value of CC(NC(=O)COc1ccc(C=NNC(=O)c2ccccc2O)cc1)c1ccccc1 (stereo unspecified) .
1.03

Please look up its NF-kB reporter: Cc1occc1C(=O)NN=Cc1cc([N+](=O)[O-])ccc1O
0.959

Record request: NF-kB reporter value, item COc1c(C)cnc(Cn2cccc(-c3nc(C)no3)c2=O)c1C
0.937
